Biological target: T1, human IL-36γ, truncated (human, UniProt Q9NZH8 18-169)
T1 sequence: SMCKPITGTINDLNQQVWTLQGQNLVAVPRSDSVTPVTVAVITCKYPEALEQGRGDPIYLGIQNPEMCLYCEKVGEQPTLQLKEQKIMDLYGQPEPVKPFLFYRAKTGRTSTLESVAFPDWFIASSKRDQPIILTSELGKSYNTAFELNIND
Assay: cell-based or functional assay
Readout Label: IC50 of IL-8 secretion, primary human monocytes, 50 nM human IL-36γ, FIG. 5D (nM)
Quick note: give the figure in nM, leave out the unit.

A selection of reference data follows.
Binder	Value Reported
144L124B (antibody, V domains shown, Mouse monoclonal from hybridoma; mouse IgG heavy and lambda light chain; Same VH and VL as 144L180A) VH: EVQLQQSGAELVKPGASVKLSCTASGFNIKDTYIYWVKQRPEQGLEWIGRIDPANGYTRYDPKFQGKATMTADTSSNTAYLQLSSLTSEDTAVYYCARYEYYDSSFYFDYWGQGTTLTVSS VL: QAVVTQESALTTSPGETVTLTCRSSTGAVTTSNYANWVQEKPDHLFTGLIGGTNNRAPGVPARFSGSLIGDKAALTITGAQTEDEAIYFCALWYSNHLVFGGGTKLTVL	41.2
144L472A (antibody, V domains shown, Mouse monoclonal from hybridoma; mouse IgG heavy and lambda light chain) VH: EVQLQQSGAELVKPGASVKLSCTVSGFNIKDTYMYWVKQRPEQGLEWIGRIDPANGYAKYDPKFQGKATLTADTSSNTAYLQLSSLTSEDTAVYFCARFHWYDSAFYFDFWGQGTTLTVSS VL: QAVVTQESALTTSPGETVTLTCRSSSGAVTTSNYANWVQEKPDHLFTGLIGGTNNRAPGVPARFSGSLIGDKAALTITGAQTEDEAIYFCGLWYSNHWVFGGGTKLTVL	40
144L249B (antibody, V domains shown, Mouse monoclonal from hybridoma; mouse IgG heavy and lambda light chain; also called mouse antibody 144L249B) VH: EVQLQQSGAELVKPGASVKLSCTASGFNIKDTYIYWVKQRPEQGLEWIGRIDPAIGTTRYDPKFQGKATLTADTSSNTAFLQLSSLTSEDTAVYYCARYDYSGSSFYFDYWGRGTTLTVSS VL: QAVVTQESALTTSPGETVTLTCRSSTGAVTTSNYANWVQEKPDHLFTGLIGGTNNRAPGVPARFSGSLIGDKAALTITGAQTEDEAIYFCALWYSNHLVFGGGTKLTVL	38.7

Let us move to another entry and its IC50 of IL-8 secretion, primary human monocytes, 50 nM human IL-36γ, FIG. 5D.
Which IC50 of IL-8 secretion, primary human monocytes, 50 nM human IL-36γ, FIG. 5D value belongs to chimeric m/h 144D464A (antibody, human IgG1, lambda, V domains shown, Mouse VH/VL joined to human IgG1 constant and human Ig lambda (IGLC2) constant; also called chimeric mouse/human (m/h) 144D464A antibody) VH: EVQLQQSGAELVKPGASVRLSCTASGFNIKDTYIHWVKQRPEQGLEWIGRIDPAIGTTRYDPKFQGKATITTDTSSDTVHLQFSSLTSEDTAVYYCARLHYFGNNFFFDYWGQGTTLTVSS VL: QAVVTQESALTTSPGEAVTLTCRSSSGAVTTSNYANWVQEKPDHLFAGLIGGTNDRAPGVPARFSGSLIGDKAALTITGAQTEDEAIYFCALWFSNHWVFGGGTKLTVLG ?
33.3
